# System Tested: human recombinant mGluR5 (Homo sapiens)
# Assay Name: positive modulation of mGluR5, calcium based FLIPR assay
# Conditions: HEK 293 cell line expressing human recombinant mGluR5; EC50 of the modulation from peak Ca fluorescence signal after glutamate at approx. 5% basal stimulation
# Procedure: The positive modulation of mGluR5 is measured in a HEK 293 cell line expressing human recombinant mGluR5 and is detected with calcium based FLIPR assay. […] 20 μl of each compound solution are then transferred to the assay plate and the Ca2+ kinetic is measured to determine any intrinsic compound activity. […] The peak height of the Ca release related fluorescence signal (9-66) is used for the EC50. The EC50 of the modulation is calculated over a nonlinear regression with GraphPad Prism (Table 1).
Measure Name: log10 EC50 (log10 of the value in nM)
Kindly note that the scale is log10 and the underlying EC50 is in nM.

Give recorded log10 EC50. Cc1nc2c(s1)CCN(C(=O)Cn1nc(-c3ccc(F)cn3)cc1-c1ccccc1)CC2 [Example 7.02.056]
2.39

Respond only with log10 EC50 recorded for COc1ccc(-c2cc(C(C)C)n(CC(=O)N3Cc4nc(C)sc4C3)n2)cc1 [Example 7.02.045]
3.15

Give a short answer stating reported log10 EC50 for Cc1cc(-c2cc(-c3ccccc3)n(CC(=O)N3CCc4cc(-c5ccccc5)nnc4CC3)n2)ccc1F [Example 7.01.082] .
1.82

Look up and report measured log10 EC50 for this entry: Cc1nc2c(o1)CN(C(=O)Cn1nc(-c3ccc(F)c(C)c3)cc1C)C2 [Example 7.02.155]
1.96

Provide one value: measured log10 EC50 of Cc1nc2c(o1)CN(C(=O)Cn1nc(-c3ccc(C(F)F)cc3)cc1-c1ccccc1)C2 [Example 7.02.257]
1.20

Return value of log10 EC50 for input CCc1cc(-c2ccc(F)c(C)c2)nn1CC(=O)N1Cc2nc(C)sc2C1 [Example 7.02.025] , no commentary.
2.17

Using known records, supply log10 EC50 for CCCc1cc(-c2ccc(F)c(C)c2)nn1CC(=O)N1CCc2nc(N)sc2CC1 [Example 7.02.033]
1.46

For the compound O=C(Cn1nc(-c2ccccc2)cc1-c1ccccc1)N1CCN(c2nc3ccccc3o2)CC1 [Example 7.02.009] , give its reported log10 EC50.
2.34

Name the recorded log10 EC50 of the item CCCc1cc(-c2ccc(F)c(C)c2)nn1CC(=O)N1CCC(c2nnc(C)o2)CC1 [Example 7.02.210] in your answer.
2.16

Identify measured log10 EC50 associated with Cc1cc(-c2cc(-c3ccccc3)n(CC(=O)N3CCc4ccccc4C3)n2)ccc1F [Example 7.01.087]
2.10

Tell me log10 EC50 reported for Cc1nc2c(s1)CN(C(=O)Cn1nc(-c3cccc(Cl)c3)cc1-c1ccccc1)C2 [Example 7.02.143]
1.68

Supply measured log10 EC50 of COc1ccc(-c2cc(C(C)C)n(CC(=O)N3CCc4nc(N)sc4CC3)n2)cc1 [Example 7.02.042] in your reply.
2.28

Read the entry Cc1nc2c(s1)CCN(C(=O)Cn1nc(-c3ccc(F)cn3)cc1-c1ccc(F)cc1)CC2 [Example 7.02.061] and write its reported log10 EC50.
1.98

Retrieve log10 EC50 measured for CCCc1cc(-c2ccc(F)c(C)c2)nn1CC(=O)N1CCN(c2nnc(C)o2)CC1 [Example 7.02.209] and print it.
1.79

Tell me log10 EC50 reported for Cc1nc2c(s1)CCN(C(=O)Cn1nc(-c3ccc(F)c(C)c3)cc1C1CC1)CC2 [Example 7.02.035]
1.54

Look up and report measured log10 EC50 for this entry: COc1cc2c(cc1OC)CCN(C(=O)Cn1nc(-c3ccc(F)c(C)c3)cc1-c1ccccc1)CC2 [Example 7.01.079]
2.65

Given the compound CCc1nc2c(o1)CN(C(=O)Cn1nc(-c3ccc(F)c(C)c3)cc1CC)C2 [Example 7.02.256] , write its reported log10 EC50.
1.04

Give the value of log10 EC50 reported for the following: O=C(Cn1nc(-c2ccccc2)cc1-c1ccccc1)N1CCc2cc(C(F)(F)F)ccc2C1 [Example 7.01.010]
2.84

Answer with the recorded log10 EC50 for the compound listed here: CCNC(=O)Nc1nc2c(s1)CN(C(=O)Cn1nc(-c3ccccc3)cc1-c1ccccc1)CC2 [Example 7.01.041]
3.19

Return reported log10 EC50. Input compound: CCc1cc(-c2ccc(F)c(C)c2)nn1CC(=O)N1CCc2nc(OC)sc2CC1 [Example 7.02.164]
1.66

Given the compound COc1ccc2c(c1)CCN(C(=O)Cn1nc(-c3ccc(F)c(C)c3)cc1-c1ccccc1)CC2 [Example 7.01.083] , write its reported log10 EC50.
1.93

Give log10 EC50 for the following compound: Cc1nc2c(o1)CN(C(=O)Cn1nc(-c3ccc(F)c(C)c3)cc1-c1ccccc1)C2 [Example 7.02.212]
0.48

Give the measured log10 EC50 for Cc1cc(-c2cc(-c3ccccc3)n(CC(=O)N3CC=C(c4ncccn4)CC3)n2)ccc1F [Example 7.02.014]
1.32

Consider the compound Cc1nc(N2CCN(C(=O)Cn3nc(-c4ccc(OC(F)F)cc4)cc3-c3ccccc3)CC2)no1 [Example 7.02.224] and give its recorded log10 EC50.
0.30

Please report the measured log10 EC50 for CCc1cc(-c2ccc(F)c(C)c2)nn1CC(=O)N1CCc2ccc(OC)cc2CC1 [Example 7.01.065]
2.24

Let me know recorded log10 EC50 for CCc1nnc(N2CCN(C(=O)Cn3nc(-c4ccc(F)c(C)c4)cc3CC)CC2)o1 [Example 7.02.163] , thanks.
2.09

Report measured log10 EC50; entry is Cc1nc2c(s1)CCN(C(=O)Cn1nc(-c3ccc(C(F)F)cc3)cc1-c1ccccc1)CC2 [Example 7.02.259]
1.00

Give log10 EC50 for the following compound: Cc1nnc(N2CCN(C(=O)Cn3nc(-c4ccc(OC(F)F)cc4)cc3-c3ccccc3)CC2)o1 [Example 7.02.225]
1.23

Give log10 EC50 for COc1ccc2c(c1)CN(C(=O)Cn1nc(-c3ccccc3)cc1-c1ccccc1)CC2 [Example 7.01.007]
3.19

For COc1ccc(-c2cc(C(C)C)n(CC(=O)N3CCc4nc(N)sc4CC3)n2)cc1C [Example 7.02.046] , write its log10 EC50.
2.94

Answer with reported log10 EC50 of COc1ccc(-c2cc(C(C)C)n(CC(=O)N3CCc4nc(C)oc4C3)n2)cc1 [Example 7.02.043]
3.24

* * *

# System Tested: human recombinant mGluR5 (Homo sapiens, UniProt P41594)
# Sequence (P41594 21-1212): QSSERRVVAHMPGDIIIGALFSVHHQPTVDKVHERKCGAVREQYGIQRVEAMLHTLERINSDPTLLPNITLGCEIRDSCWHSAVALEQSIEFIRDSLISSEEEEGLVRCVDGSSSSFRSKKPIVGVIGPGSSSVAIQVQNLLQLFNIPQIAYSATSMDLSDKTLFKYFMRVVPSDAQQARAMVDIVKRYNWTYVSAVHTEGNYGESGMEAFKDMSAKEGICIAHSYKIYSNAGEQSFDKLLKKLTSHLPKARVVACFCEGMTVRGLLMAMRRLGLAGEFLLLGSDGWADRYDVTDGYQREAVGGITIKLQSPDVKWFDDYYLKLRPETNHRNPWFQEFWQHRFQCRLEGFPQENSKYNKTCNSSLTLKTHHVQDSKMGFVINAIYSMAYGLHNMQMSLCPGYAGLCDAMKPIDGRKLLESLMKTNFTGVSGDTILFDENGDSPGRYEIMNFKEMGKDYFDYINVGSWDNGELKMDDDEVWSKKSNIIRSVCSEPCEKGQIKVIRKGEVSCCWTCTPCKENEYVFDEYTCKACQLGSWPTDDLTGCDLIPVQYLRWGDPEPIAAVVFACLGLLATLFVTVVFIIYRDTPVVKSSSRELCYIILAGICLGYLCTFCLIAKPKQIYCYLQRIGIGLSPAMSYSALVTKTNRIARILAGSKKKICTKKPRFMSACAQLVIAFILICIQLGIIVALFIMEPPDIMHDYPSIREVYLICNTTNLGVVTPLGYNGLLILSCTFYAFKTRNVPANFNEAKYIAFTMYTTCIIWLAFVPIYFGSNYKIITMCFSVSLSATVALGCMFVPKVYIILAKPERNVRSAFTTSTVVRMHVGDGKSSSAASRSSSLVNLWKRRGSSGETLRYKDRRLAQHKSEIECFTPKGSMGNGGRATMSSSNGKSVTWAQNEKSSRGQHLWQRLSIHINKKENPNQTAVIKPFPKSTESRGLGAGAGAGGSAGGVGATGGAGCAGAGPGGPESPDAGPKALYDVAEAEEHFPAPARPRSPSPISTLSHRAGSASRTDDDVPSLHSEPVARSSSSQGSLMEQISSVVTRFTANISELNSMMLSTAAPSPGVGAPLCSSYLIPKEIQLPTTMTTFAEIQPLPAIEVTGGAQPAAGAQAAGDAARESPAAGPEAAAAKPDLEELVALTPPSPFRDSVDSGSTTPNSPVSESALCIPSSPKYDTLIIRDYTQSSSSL
# Assay Name: positive modulation of mGluR5, calcium based FLIPR assay
# Conditions: HEK 293 cell line expressing human recombinant mGluR5; EC50 of the modulation from peak Ca fluorescence signal after glutamate at approx. 5% basal stimulation
pEC50: −log10 of the molar value.
Where pEC50 equals or exceeds 7, the correct label is yes (1); where it does not, the label is no (0).

Threshold query (pEC50 >= 7) on "O=C(Cn1nc(-c2ccccc2)cc1-c1ccccc1)N1CCN(c2cccc(Br)c2)C(=O)C1"
no (0)

Could you please find out whether "COc1ccc(-c2cc(C(C)C)n(CC(=O)N3CCc4cc(OC)ccc4C3)n2)cc1" has pEC50 that meets 7 or exceeds it?
no (0)

For this compound, is measured pEC50 7 or higher? "CCCc1cc(-c2ccc(F)c(C)c2)nn1CC(=O)N1CCN(c2cccc(OC)c2)C(=O)C1"
yes (1)

For this compound, is measured pEC50 7 or higher? "CCc1nnc(N2CCN(C(=O)Cn3nc(-c4ccc(F)c(C)c4)cc3-c3ccccc3)CC2)o1"
yes (1)

Item "COCc1cc(-c2ccc(F)c(C)c2)nn1CC(=O)N1CCc2nc(N)sc2CC1" with pEC50 of 7 or above?
no (0)

Please tell me: is the compound "O=C(Cn1nc(-c2ccccc2)cc1-c1ccccc1)N1CCN(c2ccc(F)cc2)C(=O)C1" at or over 7 in terms of pEC50?
no (0)

* * *

# System Tested: human recombinant mGluR5 (Homo sapiens)
# Assay Name: positive modulation of mGluR5, calcium based FLIPR assay
# Conditions: HEK 293 cell line expressing human recombinant mGluR5; EC50 of the modulation from peak Ca fluorescence signal after glutamate at approx. 5% basal stimulation
# Method: The positive modulation of mGluR5 is measured in a HEK 293 cell line expressing human recombinant mGluR5 and is detected with calcium based FLIPR assay. […] 20 μl of each compound solution are then transferred to the assay plate and the Ca2+ kinetic is measured to determine any intrinsic compound activity. […] The peak height of the Ca release related fluorescence signal (9-66) is used for the EC50. The EC50 of the modulation is calculated over a nonlinear regression with GraphPad Prism (Table 1).
Measure Name: log10 of EC50 (log10 of the value in nM)
Please keep in mind that the values are log10 of EC50 expressed in nM.

State, in one line, measured log10 of EC50 of O=C(Cn1nc(-c2ccccc2)cc1-c1ccccc1)N1CCC(c2nnc(-c3ccc(F)cc3)o2)CC1 [Example 7.01.047]
2.90

Retrieve log10 of EC50 measured for CCc1cc(-c2ccc(C)c(C)c2)nn1CC(=O)N1CCc2nc(C)sc2CC1 [Example 7.02.083] and print it.
1.54

Answer with the recorded log10 of EC50 of Nc1nc2c(s1)CCN(C(=O)Cn1nc(-c3cccc(Cl)c3)cc1-c1ccccc1)CC2 [Example 7.02.138] only.
1.64

Tell me measured log10 of EC50 for CCc1cc(-c2ccc(F)c(C)c2)nn1CC(=O)N1CC=C(c2cccc(OC)c2)CC1 [Example 7.02.137] please.
2.55

Could you please provide reported log10 of EC50 for COC(=O)c1ccc2c(c1)CCN(C(=O)Cn1nc(-c3ccccc3)cc1-c1ccccc1)CC2 [Example 7.01.030] ? Thanks!
2.68

Assign log10 of EC50 to the following record: COC(=O)c1ccc2c(c1)CCN(C(=O)Cn1nc(-c3ccccc3)cc1-c1ccccc1)C2 [Example 7.01.022]
2.71

Annotate the compound CCc1cc(-c2cccc(C)c2)nn1CC(=O)N1CCC(c2ncc(OC)cn2)CC1 [Example 7.02.081] with its measured log10 of EC50.
3.00

Look up log10 of EC50 of Cc1nc2c(s1)CCN(C(=O)Cn1nc(-c3cccc(Cl)c3)cc1-c1ccccc1)CC2 [Example 7.02.145] and report it.
1.18

Return reported log10 of EC50. Input compound: Cc1ccc(-c2cc(-c3ccccc3)n(CC(=O)N3Cc4nc(C)sc4C3)n2)nc1 [Example 7.02.118]
2.10

Look up log10 of EC50 of CCc1cc(-c2ccc(C)c(C)c2)nn1CC(=O)N1CC=C(c2ncc(OC)cn2)CC1 [Example 7.02.076] and report it.
2.47

For Cc1nc2c(s1)CN(C(=O)Cn1nc(-c3ccc(OC(F)F)cn3)cc1-c1ccccc1)C2 [Example 7.02.237] , write its log10 of EC50.
2.05

Tell me log10 of EC50 reported for COc1ccc2c(c1)CCN(C(=O)Cn1nc(-c3ccccc3)cc1-c1ccccc1)C2 [Example 7.01.018]
2.73

Specify log10 of EC50 for COc1ccc(-c2cc(C(C)C)n(CC(=O)N3CCc4nc(N)sc4CC3)n2)cc1 [Example 7.02.038] and stop.
2.32

# return recorded log10 of EC50 for input COc1cccc(N2CCN(C(=O)Cn3nc(-c4ccc(F)cc4)cc3-c3ccc(F)cc3)CC2=O)c1 [Example 7.02.012]
1.67

Identify log10 of EC50 associated with the compound COc1cnc(C2=CCN(C(=O)Cn3nc(-c4ccc(F)c(C)c4)cc3-c3ccccc3)CC2)nc1 [Example 7.02.101]
1.15

Look up and state reported log10 of EC50 for CCCc1cc(-c2ccc(F)c(C)c2)nn1CC(=O)N1Cc2nc(C)oc2C1 [Example 7.02.214]
1.04

Give the reported log10 of EC50 for this compound. O=C(Cn1nc(-c2ccccc2)cc1-c1ccccc1)N1CCc2c(cccc2C(F)(F)F)C1 [Example 7.01.045]
2.84

Kindly indicate its recorded log10 of EC50. Item: Cc1nnc(N2CCN(C(=O)Cn3nc(-c4ccc(C(F)F)cc4)cc3-c3ccccc3)CC2)o1 [Example 7.02.258]
1.49

Note log10 of EC50 for the compound shown: CCc1cc(-c2cccc(Cl)c2)nn1CC(=O)N1CCc2nc(C)sc2CC1 [Example 7.02.109]
1.79

Return reported log10 of EC50. Input compound: CCc1cc(-c2ccc(F)c(C)c2)nn1CC(=O)N1CCc2nc(N)sc2C1 [Example 7.01.068]
2.37

Report measured log10 of EC50; entry is Cc1nc2c(s1)CN(C(=O)Cn1nc(-c3ccc(F)c(C)c3)cc1C)C2 [Example 7.01.062]
2.38

Check the records and state log10 of EC50 for COc1cnc(C2=CCN(C(=O)Cn3nc(-c4cccc(C)c4)cc3-c3ccccc3)CC2)nc1 [Example 7.02.204]
1.67

Provide log10 of EC50 value for the following compound: CCc1cc(-c2ccc(F)c(C)c2)nn1CC(=O)N1CCc2cc(-c3ccccc3)nnc2CC1 [Example 7.01.066]
2.18

Item COc1cnc(C2CCN(C(=O)Cn3nc(-c4ccc(C)c(C)c4)cc3-c3ccccc3)CC2)nc1 [Example 7.02.089] : provide log10 of EC50
1.77

Provide one value: measured log10 of EC50 of COc1ccc(-c2cc(C(C)C)n(CC(=O)N3CCc4ccc(OC)cc4CC3)n2)cc1 [Example 7.02.044]
2.87
